Target: recombinant SARS-CoV-2 RBD with C-terminal AviTag (SARS-CoV-2, UniProt P0DTC2 319-541)
pIC50: −log10 of the molar value.

BINDER | pIC50
MBP-5HVZ-R5C-E3-H6 (VHH, not shown: large carriers; small tags and cut ends) VHH: QVQLVESGGGLVQPGGSLRLSCAASGSFFSINAVHWFRQAPGKEREFVASISVGDSRSYRDSVKGRFTISRDNAKNTVYLQMNSLKPEDTAVYYCAAQIYITTYELYDYWGQGTQVTVSS | 8.04
MBP-5HVZ-R5C-B2-H6 (VHH, not shown: large carriers; small tags and cut ends) VHH: QVQLVESGGGLVQPGGSLRLSCAASGSIFSLNWVHWFRQAPGKSREGVASINSGGHADYSDSVKGRFTISRDNAKNTVYLQMNSLKPEDTAVYYCAAGPYGAYNFNSWGQGTQVTVSS | 8.23
MBP-5HVZ-R5C-E1-H6 (VHH, not shown: large carriers; small tags and cut ends) VHH: QVQLVESGGGLVQPGGSLRLSCAASGYIFSATVMHWFRQAPGKQREGVASINSTGSSQYADSVKGRFTISRDNAKNTVYLQMNSLKPEDTAVYYCAADGADVVYGNRYWGQGTQVTVSS | 8.35
MBP-5HVZ-R5C-A1-H6 (VHH, not shown: large carriers; small tags and cut ends) VHH: QVQLVESGGGLVQPGGSLRLSCAASGLDVSINFMHWYRQAPGKEREGVAGITWQGSTYYADSVKGRFTISRDNAKNTVYLQMNSLKPEDTAVYYCATVWAGGTPNDYWGQGTQVTVSS | 7.99
